# assay_system: Adrenergic α2B (Homo sapiens)
# Sequence (P18089 whole entry): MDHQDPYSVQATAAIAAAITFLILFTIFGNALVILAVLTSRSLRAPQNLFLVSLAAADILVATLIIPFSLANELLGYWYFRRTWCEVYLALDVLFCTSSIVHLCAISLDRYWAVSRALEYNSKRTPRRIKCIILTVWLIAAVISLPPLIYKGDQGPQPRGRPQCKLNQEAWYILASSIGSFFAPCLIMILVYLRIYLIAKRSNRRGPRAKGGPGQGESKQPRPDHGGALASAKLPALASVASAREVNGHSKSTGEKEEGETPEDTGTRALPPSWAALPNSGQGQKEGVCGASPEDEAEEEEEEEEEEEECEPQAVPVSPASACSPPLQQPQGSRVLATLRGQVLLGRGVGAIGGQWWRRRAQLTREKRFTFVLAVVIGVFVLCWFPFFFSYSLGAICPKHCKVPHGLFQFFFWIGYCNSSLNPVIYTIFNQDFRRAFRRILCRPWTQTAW
pIC50: −log10 of the molar value.
endpoint_name: pIC50

[[record]]
compound = "CC[C@@H](CO)NC(=O)[C@@H]1C=C2c3cccc4[nH]c(C(F)(F)F)c(c34)C[C@H]2N(C)C1 [2-CF3-sergide]"
endpoint_name = "pIC50"
observed_result = "< 6.00"

